# System: A549-TUBA1B-RELA
# Assay: phenotypically active (imaging signature differs from DMSO and reproducible) at any of 0.3-9 uM (binary (1 = active, 0 = inactive)); higher = active
# Condition summary: treatment time: 24 h
Choose the fitting class; nothing outside y = active, n = inactive is accepted.

Req: Hi, do you know how CO[C@H]1C=CO[C@@]2(C)Oc3c(C)c(O)c4c(O)c(c(/C=N/N5CCN(C)CC5)c(O)c4c3C2=O)NC(=O)C(C)=CC=C[C@H](C)[C@H](O)[C@@H](C)[C@@H](O)[C@@H](C)[C@H](OC(C)=O)[C@@H]1C [Rifampicin] came out in this test?
Resp: n

Req: Could you please tell me the result logged for CCC(=O)N1CCOc2c(cc(-c3ccc(OC)c(OC)c3)cc2OC[C@H]2CCCN(C)C2)C1 in this assay?
Resp: y

Req: Entry CC[N+](CC)(CCNC(=O)C(=O)NCC[N+](CC)(CC)Cc1ccccc1Cl)Cc1ccccc1Cl [ambenonium] : call = ?
Resp: n

Req: So what was the verdict on O=P(O)(O)C(O)(Cn1ccnc1)P(=O)(O)O [zoledronic-acid] in this test?
Resp: n

Req: Each molecule tested received a call. Report the one for NS(=O)(=O)c1cc2c(cc1Cl)N=CNS2(=O)=O [chlorothiazide] .
Resp: n

Req: Kindly provide the recorded test outcome for the following molecule: O=c1cc(N2CCOCC2)oc2c(-c3ccccc3)cccc12
Resp: y

Req: Give the logged outcome of this assay for the following molecule: Cc1ccc(NC2=CC(=O)c3sc(C)nc3C2=O)cc1 [Ryuvidine]
Resp: y

Req: Identify the outcome logged in this assay for the molecule shown: CC1=C(/C=C/C(C)=C/C=C/C(C)=C/C(=O)O)C(C)(C)CCC1 [isotretinoin]
Resp: n

Req: Could you please tell me the result logged for Oc1ccc(-c2nc(-c3ccc(F)cc3)c(-c3ccncc3)[nH]2)cc1 in this assay?
Resp: y
